- experiment description: PK of compound of Formula (Ia) after single subcutaneous dose of solution formulations in Wistar Han rats
- Type: in vivo
- condition label: male, Wistar Han, rat, plasma, sc, 50 mg/kg, mean ± SD, n = 5 rats; SC 50 mg/kg; solution T, 400 mg/mL; read-out: AUC0-5376 h
measured property: AUC(0-t)

Field AUC(0-t) (entry "CC(C)(C#Cc1ccc(-c2ccc(Cl)c3c(NS(C)(=O)=O)nn(CC(F)(F)F)c23)c([C@H](Cc2cc(F)cc(F)c2)NC(=O)Cn2nc(C(F)(F)F)c3c2C(F)(F)[C@@H]2C[C@H]32)n1)S(C)(=O)=O" ) reads 745 µM·h

====

- experiment description: PK of compound of Formula (Ia) after single subcutaneous dose of solution formulations in beagle dogs
- Type: in vivo
- condition label: male, beagle, dog, plasma, sc, 12 mg/kg, 1344 h; mean, n = 3 dogs; SC 12 mg/kg; solution U, 500 mg/mL
- Method: Formulations containing the compound of Formula (Ia), or a pharmaceutically acceptable salt thereof, were prepared as solutions and optionally administered subcutaneously or intramuscularly to rats, rabbits, and/or dogs. A solution of about 400 mg/mL of the compound of Formula (Ia) having 17.00 w/w % water, 36.40 w/w % PEG 300, 35.20 w/w % of a sodium salt of a compound of Formula (Ia), 5.00 w/w % ethanol, and 6.40 w/w % poloxamer 188 was prepared. […]
measured property: concentration at 1344 h (nM)
Provide only the numeric value, understood in nM.

Entry "CC(C)(C#Cc1ccc(-c2ccc(Cl)c3c(NS(C)(=O)=O)nn(CC(F)(F)F)c23)c([C@H](Cc2cc(F)cc(F)c2)NC(=O)Cn2nc(C(F)(F)F)c3c2C(F)(F)[C@@H]2C[C@H]32)n1)S(C)(=O)=O" — recorded concentration at 1344 h = 34.8

====

- experiment description: PK of compound of Formula (Ia) after single subcutaneous dose of solution formulations in Wistar Han rats
- Type: in vivo
- condition label: male, Wistar Han, rat, plasma, sc, 50 mg/kg, 3.00 h; mean, n = 3 rats; SC 50 mg/kg; solution R, 400 mg/mL
measured property: concentration at 3 h (nM)
Write down the numeric answer in nM and omit the unit.

"CC(C)(C#Cc1ccc(-c2ccc(Cl)c3c(NS(C)(=O)=O)nn(CC(F)(F)F)c23)c([C@H](Cc2cc(F)cc(F)c2)NC(=O)Cn2nc(C(F)(F)F)c3c2C(F)(F)[C@@H]2C[C@H]32)n1)S(C)(=O)=O" yielded concentration at 3 h of 132

====

- experiment description: PK of compound of Formula (Ia) after single subcutaneous dose of solution formulations in Wistar Han rats
- Assay type: in vivo
- condition label: male, Wistar Han, rat, plasma, sc, 50 mg/kg, 1334 h; individual rats; SC 50 mg/kg; solution R, 400 mg/mL
measured property: concentration at 1334 h (nM)
Just the number in nM, nothing appended.

Lab note: measured concentration at 1334 h of "CC(C)(C#Cc1ccc(-c2ccc(Cl)c3c(NS(C)(=O)=O)nn(CC(F)(F)F)c23)c([C@H](Cc2cc(F)cc(F)c2)NC(=O)Cn2nc(C(F)(F)F)c3c2C(F)(F)[C@@H]2C[C@H]32)n1)S(C)(=O)=O" was 296

====

- experiment description: PK of compound of Formula (Ia) after single intramuscular dose of solution formulations in Wistar Han rats
- Type: in vivo
- condition label: male, Wistar Han, rat, plasma, intramuscular, 100 mg/kg, 48.0 h; individual rats; IM 100 mg/kg; solution M, 500 mg/mL; read-out: Plasma concentration
measured property: concentration at 48 h (nM)
Give the value in nM but do not write nM after it.

Record summary for CC(C)(C#Cc1ccc(-c2ccc(Cl)c3c(NS(C)(=O)=O)nn(CC(F)(F)F)c23)c([C@H](Cc2cc(F)cc(F)c2)NC(=O)Cn2nc(C(F)(F)F)c3c2C(F)(F)[C@@H]2C[C@H]32)n1)S(C)(=O)=O [compound of Formula (Ia)] : reported concentration at 48 h = 623

====

- experiment description: PK of compound of Formula (Ia) after single subcutaneous dose of solution formulations in beagle dogs
- Assay type: in vivo
- condition label: male, beagle, dog, plasma, sc, 12 mg/kg, 2016 h; mean, n = 3 dogs; SC 12 mg/kg; solution U, 500 mg/mL
measured property: concentration at 2016 h (nM)
The reply should be a number in nM, with the unit left off.

Just so you know, measured concentration at 2016 h for "CC(C)(C#Cc1ccc(-c2ccc(Cl)c3c(NS(C)(=O)=O)nn(CC(F)(F)F)c23)c([C@H](Cc2cc(F)cc(F)c2)NC(=O)Cn2nc(C(F)(F)F)c3c2C(F)(F)[C@@H]2C[C@H]32)n1)S(C)(=O)=O" came out at 10.3

====

- experiment description: PK of compound of Formula (Ia) after single subcutaneous dose of solution formulations in Wistar Han rats
- Format: in vivo
- condition label: male, Wistar Han, rat, plasma, sc, 50 mg/kg, Wistar Han rats, SC 50 mg/kg, 400 mg/mL solution AA (6.25% poloxamer 188), 840 h, Mean n = 4
measured property: concentration at 840 h
Your reply should be a number followed by the unit it is expressed in.

concentration at 840 h recorded for this molecule, "CC(C)(C#Cc1ccc(-c2ccc(Cl)c3c(NS(C)(=O)=O)nn(CC(F)(F)F)c23)c([C@H](Cc2cc(F)cc(F)c2)NC(=O)Cn2nc(C(F)(F)F)c3c2C(F)(F)[C@@H]2C[C@H]32)n1)S(C)(=O)=O" , is 118 nM

====

- experiment description: PK of compound of Formula (Ia) after single subcutaneous dose of solution formulations in Wistar Han rats
- Format: in vivo
- condition label: male, Wistar Han, rat, plasma, sc, 50 mg/kg, Wistar Han rats, SC 50 mg/kg, 400 mg/mL solution W (5.00% ethanol, 1.57% poloxamer 188), 1008 h, animals #1-#3
measured property: concentration at 1008 h (µM)
All answers are understood in µM, so give the number only.

Query "CC(C)(C#Cc1ccc(-c2ccc(Cl)c3c(NS(C)(=O)=O)nn(CC(F)(F)F)c23)c([C@H](Cc2cc(F)cc(F)c2)NC(=O)Cn2nc(C(F)(F)F)c3c2C(F)(F)[C@@H]2C[C@H]32)n1)S(C)(=O)=O" yields concentration at 1008 h of 0.176

====

- experiment description: PK of compound of Formula (Ia) after single subcutaneous dose of solution formulations in Wistar Han rats
- Type: in vivo
- condition label: male, Wistar Han, rat, plasma, sc, 50 mg/kg, 72.0 h; individual rats; SC 50 mg/kg; solution T, 400 mg/mL
- Experimental: Formulations containing the compound of Formula (Ia), or a pharmaceutically acceptable salt thereof, were prepared as solutions and optionally administered subcutaneously or intramuscularly to rats, rabbits, and/or dogs. A solution of about 400 mg/mL of the compound of Formula (Ia) having 19.14 w/w % water, 40.66 w/w % PEG 300, 35.20 w/w % of a sodium salt of a compound of Formula (Ia), and 5.00% ethanol was prepared. […]
measured property: concentration at 72 h (nM)
Numbers only; they are read as nM.

The compound identified as "CC(C)(C#Cc1ccc(-c2ccc(Cl)c3c(NS(C)(=O)=O)nn(CC(F)(F)F)c23)c([C@H](Cc2cc(F)cc(F)c2)NC(=O)Cn2nc(C(F)(F)F)c3c2C(F)(F)[C@@H]2C[C@H]32)n1)S(C)(=O)=O" registered its concentration at 72 h at 353

====

- experiment description: PK of compound of Formula (Ia) after single subcutaneous dose of solution formulations in Wistar Han rats
- Assay type: in vivo
- condition label: male, Wistar Han, rat, plasma, sc, 50 mg/kg, Wistar Han rats, SC 50 mg/kg, 400 mg/mL solution Y (water, PEG 300), 168 h, Mean n = 4
measured property: concentration at 168 h (nM)
Lab book: enter the figure in nM, no units written.

Looking up "CC(C)(C#Cc1ccc(-c2ccc(Cl)c3c(NS(C)(=O)=O)nn(CC(F)(F)F)c23)c([C@H](Cc2cc(F)cc(F)c2)NC(=O)Cn2nc(C(F)(F)F)c3c2C(F)(F)[C@@H]2C[C@H]32)n1)S(C)(=O)=O" , I found its concentration at 168 h recorded as 85.7

====

- experiment description: PK of compound of Formula (Ia) after single subcutaneous dose of solution formulations in Wistar Han rats
- Type: in vivo
- condition label: male, Wistar Han, rat, plasma, sc, 50 mg/kg, 6048 h; mean (rat #1 NS); SC 50 mg/kg; solution T, 400 mg/mL
measured property: concentration at 6048 h (nM)
// note: answer is a bare numeric in nM

Noted for "CC(C)(C#Cc1ccc(-c2ccc(Cl)c3c(NS(C)(=O)=O)nn(CC(F)(F)F)c23)c([C@H](Cc2cc(F)cc(F)c2)NC(=O)Cn2nc(C(F)(F)F)c3c2C(F)(F)[C@@H]2C[C@H]32)n1)S(C)(=O)=O" : its concentration at 6048 h reads 29
